Molecular target: T1, TauC3 (C-terminally truncated tau fragment ending at aspartate 421 of htau40) (human, UniProt P10636 1-738)
T1 construct: Generated and purified by Genscript; also called Human TauC3; recombinant TauC3 protein
T1 sequence (P10636 other isoform, or with tags, fused parts or gaps): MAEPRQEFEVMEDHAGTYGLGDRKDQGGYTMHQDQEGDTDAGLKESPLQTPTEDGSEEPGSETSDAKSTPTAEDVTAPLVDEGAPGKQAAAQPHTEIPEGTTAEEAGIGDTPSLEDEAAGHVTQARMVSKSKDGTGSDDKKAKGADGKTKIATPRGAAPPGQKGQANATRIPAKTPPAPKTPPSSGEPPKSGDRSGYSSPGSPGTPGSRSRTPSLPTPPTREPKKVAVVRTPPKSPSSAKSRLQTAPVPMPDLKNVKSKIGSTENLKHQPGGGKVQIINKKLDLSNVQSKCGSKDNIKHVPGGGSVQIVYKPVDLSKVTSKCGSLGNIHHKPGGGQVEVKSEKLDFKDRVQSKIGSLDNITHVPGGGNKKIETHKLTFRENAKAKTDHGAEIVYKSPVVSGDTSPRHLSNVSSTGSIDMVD
Assay: binding ELISA on coated TauC3, OD650

| binder | EC50 [nM] |
| --- | --- |
| Tau01 HBKG (antibody, V domains shown, human IgG4 kappa (HuG4K)) VH: EVQVVESGGGLVQPGGSLKLSCAASGFTFNTYAMNWVRQASGKGLEWVARIRSKSNNYATYYADSVKGRFTISRDDSKSMVYLQMDSLKTEDTAVYYCVGGGDFWGQGTLVTVSS VL: DIQMTQSPSSLSASVGDRVTITCRASQEISVYLGWYQQKPGKAPKRLIYGAFTLQSGVPSRFSGSRSGTEFTLTISSLQPEDFATYYCLQYVRYPWTFGGGTKVEIK | 0.761 |
| HBKD (antibody, V domains shown, humanized variant, HB with KD; also called Tau01 HBKD HuG4K) VH: EVQVVESGGGLVQPGGSLKLSCAASGFTFNTYAMNWVRQASGKGLEWVARIRSKSNNYATYYADSVKGRFTISRDDSKSMVYLQMDSLKTEDTAVYYCVGGGDFWGQGTLVTVSS VL: DIQMTQSPSSLSASVGDRVTITCRASQEISVYLSWYQQKPGKAPKRLIYGAFKLQSGVPSRFSGSRSGTEFTLTISSLQPEDFATYYCLQYVRYPWTFGGGTKVEIK | 3.04 |
| HBKF (antibody, V domains shown, humanized variant, HB with KF; also called Tau01 HBKF HuG4K) VH: EVQVVESGGGLVQPGGSLKLSCAASGFTFNTYAMNWVRQASGKGLEWVARIRSKSNNYATYYADSVKGRFTISRDDSKSMVYLQMDSLKTEDTAVYYCVGGGDFWGQGTLVTVSS VL: DIQMTQSPSSLSASVGDRVTITCRASQEISVYLGWYQQKPGKAIKRLIYGAFKLQSGVPSRFSGSRSGTEFTLTISSLQPEDFATYYCLQYVRYPWTFGGGTKVEIK | 0.786 |
| Tau01 HBKA (antibody, V domains shown, human IgG4 kappa (HuG4K)) VH: EVQVVESGGGLVQPGGSLKLSCAASGFTFNTYAMNWVRQASGKGLEWVARIRSKSNNYATYYADSVKGRFTISRDDSKSMVYLQMDSLKTEDTAVYYCVGGGDFWGQGTLVTVSS VL: DIQMTQSPSSLSASVGDRVTITCRASQEISVYLGWYQQKPGKAPKRLIYGAFKLQSGVPSRFSGSRSGTEFTLTISSLQPEDFATYYCLQYVRYPWTFGGGTKVEIK | 0.795 |
| Tau01 HBKI (antibody, V domains shown, human IgG4 kappa (HuG4K)) VH: EVQVVESGGGLVQPGGSLKLSCAASGFTFNTYAMNWVRQASGKGLEWVARIRSKSNNYATYYADSVKGRFTISRDDSKSMVYLQMDSLKTEDTAVYYCVGGGDFWGQGTLVTVSS VL: DIQMTQSPSSLSASVGDRVTITCRASQEISVYLGWYQQKPGKAPKRLIYGAFKLQSGVPSRFSGSRSGTEYTLTISSLQPEDFATYYCLQYVRYPWTFGGGTKVEIK | 0.705 |
| Tau01 HBKJ (antibody, V domains shown, human IgG4 kappa (HuG4K)) VH: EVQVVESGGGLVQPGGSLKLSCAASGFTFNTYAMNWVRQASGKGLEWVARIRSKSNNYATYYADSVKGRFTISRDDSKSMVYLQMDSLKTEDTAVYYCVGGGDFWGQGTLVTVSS VL: DIQMTQSPSSLSASVGDRVTITCRASQEISVYLGWYQQKPGKAPKRLIYGAFSLQSGVPSRFSGSRSGTEFTLTISSLQPEDFATYYCLQYVRYPWTFGGGTKVEIK | 0.811 |
| MoTau01 HuG4K chimeric antibody (antibody, V domains shown, Mouse variable regions with human IgG4 / kappa constant regions (pHuG4, pHuK); also called chimeric Tau01) VH: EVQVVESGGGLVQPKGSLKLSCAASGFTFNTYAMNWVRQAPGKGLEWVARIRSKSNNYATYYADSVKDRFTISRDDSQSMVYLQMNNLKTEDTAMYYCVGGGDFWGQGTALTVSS VL: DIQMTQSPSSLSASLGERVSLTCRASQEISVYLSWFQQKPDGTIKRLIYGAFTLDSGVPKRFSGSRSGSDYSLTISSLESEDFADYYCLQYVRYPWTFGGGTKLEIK | 0.724 |
| HBKH (antibody, V domains shown, humanized variant, HB with KH; also called Tau01 HBKH HuG4K) VH: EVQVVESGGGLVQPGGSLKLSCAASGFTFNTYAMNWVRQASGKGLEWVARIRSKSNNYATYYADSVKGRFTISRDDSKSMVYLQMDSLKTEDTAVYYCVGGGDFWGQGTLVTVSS VL: DIQMTQSPSSLSASVGDRVTITCRASQEISVYLGWYQQKPGKAPKRLIYGAFKLQSGVPSRFSGSRSGSEFTLTISSLQPEDFATYYCLQYVRYPWTFGGGTKVEIK | 0.807 |
| Tau01 HBKB (antibody, V domains shown, human IgG4 kappa (HuG4K)) VH: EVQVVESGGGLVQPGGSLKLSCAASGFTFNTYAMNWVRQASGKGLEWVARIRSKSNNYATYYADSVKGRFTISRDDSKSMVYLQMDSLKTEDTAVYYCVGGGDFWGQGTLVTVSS VL: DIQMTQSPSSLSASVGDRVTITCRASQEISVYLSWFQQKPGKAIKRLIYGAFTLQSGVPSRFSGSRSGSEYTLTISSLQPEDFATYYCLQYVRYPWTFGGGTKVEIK | 0.767 |
| Tau01 HBKE (antibody, V domains shown, human IgG4 kappa (HuG4K)) VH: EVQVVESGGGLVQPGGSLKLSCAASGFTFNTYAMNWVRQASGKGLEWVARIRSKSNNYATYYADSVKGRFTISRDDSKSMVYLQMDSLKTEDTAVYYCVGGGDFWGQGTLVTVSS VL: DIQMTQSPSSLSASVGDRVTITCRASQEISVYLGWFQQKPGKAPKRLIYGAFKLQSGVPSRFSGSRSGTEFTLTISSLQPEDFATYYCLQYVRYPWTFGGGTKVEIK | 0.915 |
